# system: BB1, BB2, BB3
# test_details: Non-selective radioligand displacement binding, rat cerebral cortex / brain neurons
# conditions: displacement of radiolabeled GRP; BB1, BB2, BB3, rat cortex homogenate
experimental_endpoint: pKi
Please keep in mind that pKi is minus log10 of the molar concentration; only the number is needed.

Q: Item VPLPAGGGTVLTKMYPRGNHWAVGHLM [GRP] has what recorded pKi?
Ans: 8.70
